Data provenance is patent US20240254204A1.

- System name: SARS-CoV-1 RBD (SARS-CoV)
- Procedure details: ELISA, 100 ng coated RBD, neat supernatant, anti-human IgG-HRP
Observable: Binding SARS-CoV-1

• Antibody 19 (SS6V19-F4) (antibody, V domains shown) VH: EVQLVQSGSELKKPGASVKVSCKVSGYTFTDYNMNWVRQAPGQGLEWMGWINTNTGIPTYAQGFTGRFVFSLDTSVSTAYLQISSLKAEDTAIYYCARDGGWQLPYWYFDLWGRGTLVTVSS VL: EIVMTQSPATLSVSPGERVTLSCRASYSFSSSLAWYQQKPGQAPRLLIYGTSTRATGVPVRFSGSGSGTEFTLTISSLQSEDLAVYYCQQYYSWPLTFGQGTKVDIK = 1.15
• Antibody 8 (SS6V8-D3) (antibody, V domains shown) VH: EVQLVESGGDLVQPGGSLRLSCSASGFTFSTYAMHWVRQAPGKGLDYVASIASDGGITTYADSVKGRFTISRDNSKNALYLQMSSLRVEDTAVYYCVKDSLTSVTTIFDCWGQGTLVTVSS VL: DIQMTQSPSSLSASVGDSVTITCRASQNINSYLHWYQQKPGKAPKLLIYTASSLQSGVPSRFSASGSGTHFTLTISSLQPEDFATYYCQQSYTDPYTFGQGSKVEIK = 1.42
• Antibody 5 (SS6V5-C3) (antibody, V domains shown) VH: EVQLVQSGAEVRKPGESLKISCKTSGYTFTHYWIGWVRQLPGKGLEWMGIIYPDDSDTKYSPSFQGQITISADKSISTAYLQWNSLKASDTAMYFCATADIVVGSNFFDHWGQGTLVTVSS VL: DIQMTQSPSTLSASVGDRVTITCRASQSISTWLAWYQQKPGKPPKVLIYKASILESGVSSRFSGSGSGTEFTLTISSLQPDDFATYYCQHYNSYIKTFGQGTKVEIK = 1.16
• Antibody 14 (SS6V14-F2) (antibody, V domains shown) VH: QVQLQESGPGLVKPSETLSLTCTVSGGPISSYYWTWIRQPPGKGLEWIGYIYYSGSTNYSPSLKSRVTMSLETSKNQFSLKLTSVTAADTAVYYCARDPLAEGAASSGFDNWGQGTLVTVSS VL: DIQMTQSPSSLSASVGDRVTITCRASQSISSYLNWYQQKPGKAPKLLIYAASALQSGVPSRFSGSGSGTHFSLTINGLQPEDFATYSCQQSYTTPRTFGPGTKVEIK = 1.06
• Antibody 9 (SS6V9-D11) (antibody, V domains shown) VH: QVQLQESGPGLVKPSGTLSLTCAVSGGSISSNIWWSWVRQPPGKGLEWIGDIYHSGSTNYNPSLEGRVTISIDKSKNQFSLRLTSLTAADTAVYYCARAISQQYFDSSVLGYWGQGILVTVSS VL: EIVMTQSPATLSVSPGERVTLSCRASQSVVTNLAWYQQKPGQAPRLLIYGASTRATGIPARFSGSGSGTEFTLTISSLQSEDFAIYHCQQYNNWPGYTFGQGTKVDIK = 1.29
• Antibody 6 (SS6V6-C4) (antibody, V domains shown) VH: EVQLVESGGGLVQPGGSLRLSCSASGFTFNTYAMHWVRQAPGKGPEYVSGISSNGGITDYADSVKGRFTISRDNSKNTLYLQMSSLRPEDTAVYYCVKDSLATVVTLLSYWGQGTLVTVSS VL: DIQMTQSPSSLSASVGDRVTITCRASQTISSYLNWFQQKPGKAPKLLIYAASSLQSGVPSRFSGSGSGTDFTLTISSLQPEDFAIYYCQQSYSTPGTFGQGTKVEIK = 1.29
• Antibody 1 (SS6V1-B5) (antibody, V domains shown) VH: EVQLVESGGGLVQPGGSLRLSCAASGFILRNYEMQWVRQAPGKGLEWVSVIGNTGGTFYAGSVKGRFTISRENAKNSLYLQMNSLRAEDTALYYCARVTYTSSPLPFWFLDLWGRGTLVTVSS VL: DIQMTQSPSSLSASVGDRVTITCRASQSIGNYLNWYQQKSGKAPKILIYAASSLQSGVPSRFSGSGSGTDFTLTISSLQPEDFATYYCQQTYRTPPEDSFGQGTKVEIK = 1.35
• Antibody 18 (SS6V18-E3) (antibody, V domains shown) VH: EVQLVESGGGLVQPGGSLRLSCAASGFTFSSYAMHWVRQVPGKGLEYVSSITSNGGGTFYADSVKGRFTISRDNSKNTVYLQMGSLSTEDMALYYCAREGIQGWVTYFDYWGRGILVTVSS VL: DIQMTQSPSSLSASIGDRVTITCRASQSISTNLNWYQQKPGKAPKLLIYAASSLPSGVPSRFSGSGSGTDFTLTISSLQPEDFANYLCQQTYTTPQYSFGQGTKVEIK = 1.33
• Antibody 10 (SS6V10-E1) (antibody, V domains shown) VH: EVQLVQSGAEVKKPGESLKISCQGSEDSFTGYWIGWVRQLPGKGLEWMGFIYPDDGDTRYSPAFQGLVTFSADKSITTAYLQWSSLKASDTAIYFCARHLGGGSSWPIDSWGQGTQVTVSS VL: DIQMTQSPSSLSASVGDRVTITCRASQGIRNYLAWFQQKPGKAPKSLIYAASSLQSGVPSKFSGSGYGTDFTLTINSLQPEDFATYYCQQYNNHPFTFGGGTKVEIK = 1.1
• Antibody 12 (SS6V12-E11) (antibody, V domains shown) VH: EVQLVESGGGLVKPGGSLRLSCAASGFTFSTYNMNWVRQAPGKGLEWVSSISSSSSFMFYADSVKGRFTISRDNANNSLYLQMNSLRAEDTAVYYCARDYYDNSGYYYYGMDVWGQGTTVTVSS VL: DIQMTQSPSSLSASVGDRVTITCRASQSIRTYLSWYQQKPGKAPELLIYAASNLQSGVPSRFSGSGSGTDFTLTISSLQPEDFATYYCLQTYSTPQITFGQGTRLEIE = 1.21
